Test: Stability in mouse plasma measured after 2 hrs by LC-MS/MS analysis
measured_metric: remaining at 2 h (%)

Fc1ccc(CNc2nc(N3CCN(C4CCCC4)CC3)c3ncn(CCCN4CCCC4)c3n2)cc1: 20

[a] CCN1CCN(CCCn2cnc3c(N4CCN(CC)CC4)ncnc32)CC1
[b] CCN1CCN(c2nc(NCc3ccc(CN(C)C)cc3)nc3c2ncn3CCCN2CCCC2)CC1
[ask] Which item exceeds the other in remaining at 2 h, a or b ? When you have decided, please share the label of that item.
[reply] a
(a: 99%, b: 22%)

* * *

Test: Stability in human plasma measured after 2 hrs by LC-MS/MS analysis
measured_metric: remaining at 2 h (%)

Fc1ccc(CNc2nc(N3CCN(C4CCCC4)CC3)c3ncn(CCCN4CCCC4)c3n2)cc1: 75
CCN1CCN(c2nc(NCc3ccc(CN(C)C)cc3)nc3c2ncn3CCCN2CCCC2)CC1: 58
